- Tested on: LOC_OS05G07850-cb002;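 note: purified Escherichia coli-expressed rice kinase domain construct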
- MEASUREMENT_PROTOCOL: thermal shift delta Tm vs DMSO control; higher = stronger stabilization (binding)
- ASSAY_CONDITIONS: 12.5 µM; protein concentration 2 µM
Record form. Attribute: thermal shift delta Tm. Fill in for each entry.
Please respond with the number in °C and leave the unit unwritten.

Q) What does the record list as thermal shift delta Tm for O=c1cc(N2CCOCC2)oc2c(-c3cccc4c3sc3ccccc34)cccc12 ?
A) 0.31

Q) Look up thermal shift delta Tm: Cc1cnc(NC(=O)Nc2cc(Br)c(C)cc2OC[C@@H]2CNCCO2)cn1
A) 3.74

Q) Fill blank: measured thermal shift delta Tm of the compound CCCCCCCCCCCCCCCCOP(=O)([O-])OCC[N+](C)(C)C is ____.
A) -1.01

Q) Tell me the measured thermal shift delta Tm of CCCNC(=O)c1cn2ncnc(Nc3cc(C(=O)NC4CC4)ccc3C)c2c1C , please.
A) 0.14

Q) So what does the record say about thermal shift delta Tm for Cc1csc(-c2nnc(Nc3ccc(Oc4ncccc4-c4ccnc(N)n4)cc3)c3ccccc23)c1 ?
A) 6.74

Q) // returns reported thermal shift delta Tm for input Cc1c[nH]c(/C=C2\C(=O)Nc3ccccc32)c1CCC(=O)O
A) 6.66

Q) Consider the compound shown here: O=C(O)c1ccc2c3c1cccc3c(=O)n1c3ccccc3nc21 What is its recorded thermal shift delta Tm?
A) 7.31

Q) Quick check: thermal shift delta Tm of Cc1c(CN2CCN(C(=O)[C@H](C)O)CC2)sc2c(N3CCOCC3)nc(-c3cnc(N)nc3)nc12 ?
A) 2.89

Q) Reported thermal shift delta Tm, compound C[C@H](CN(C)C)Oc1nc(Nc2cc3cccc(Cl)c3cn2)cnc1C#N : ____
A) 5.49
